- assayProcedure: Stability of the nine components in rat plasma QC samples (auto-sampler, freeze-thaw, long-term)
- Type: physicochemical
- conditionDetails: rat plasma, MQC spiked 500 ng/mL (1000 ng/mL for II), n = 5
recordedMetric: Freeze-Thaw Stability (Three Cycles), RE (%)

I = O=C(/C=C/c1ccc(O)c(O)c1)O[C@@H]1C[C@](O)(C(=O)O)C[C@@H](O)[C@H]1O [I, 5-caffeoylquinic acid]
II = O=C(/C=C/c1ccc(O)c(O)c1)O[C@@H](C(=O)O)[C@@H](O)C(=O)O [II, caftaric acid]
III = O=C(O)[C@H]1O[C@@H](Oc2cc(O)c3c(=O)cc(-c4ccc(O)cc4)oc3c2)[C@H](O)[C@@H](O)[C@@H]1O [IX, apigenin-7-O-β-D-glucuronide]
**Q:** Sort the entries above numerically by Freeze-Thaw Stability (Three Cycles), RE, high end first. # answer = labels listed in requested order
**A:** II, III, I
(II: 2.66%, III: 0.53%, I: −8.67%)

Every entry's value here was drawn from paper PMC6337671.
